Provenance of the data: PubChem BioAssay (NCI)

- Tested on: KM12 colon
- test description: NCI-60 one-dose screen, 48 h
- condition label: 10 µM unless noted
The panel holds about 83,000 compounds, 20% with a hit somewhere; the sample as a whole holds those more often. Activity calls are given as the source filed them. The calls were made as follows: active = growth percent below 10; inactive = the rest.
Possible outcomes: active, inactive

molecule: Cn1cnc([N+](=O)[O-])c1S(=O)(=O)Oc1ccc(Cl)cc1
label class: inactive

molecule: COc1ccc(OC)c2c1[nH]c(=O)c1c3ccccc3cn21
label class: active

molecule: CSc1nnc(C2=CC(=O)c3ccccc3C2=O)n1-c1ccccc1
label class: inactive

molecule: C/C(=C\CCc1ccsc1)CC/C=C(\C)CCCN1CCN(CCO)CC1
label class: inactive

molecule: COc1ccc(-c2cncn2-c2ccc(-c3nc4cc(OC)c(OC)c(OC)c4s3)cc2)cc1N
label class: inactive

molecule: COc1ccc(-c2nnc(COc3ccc(NC(=O)Nc4cc(C(F)(F)F)cc(C(F)(F)F)c4)cc3F)o2)cc1
label class: active

molecule: CN(CCOc1ccc(CC2SC(=O)NC2=O)cc1)c1ccccn1 (configuration not stated)
label class: inactive

molecule: CCCCCCCCCCCCCCCCCC1=NC(C)(C)CN1CCO
label class: active

molecule: O=C(Nc1ccc(Nc2ccncc2)cc1)c1ccc(Nc2ccnc3ccc([N+](=O)[O-])cc23)cc1[N+](=O)[O-]
label class: active

molecule: CCOC(=O)c1c2c(c(C)n1Cc1ccccc1)-c1nc(N)ncc1CC2
label class: inactive

molecule: O=C(Nc1ccncc1)C(=O)c1cn(S(=O)(=O)c2cccc(F)c2)c2ccccc12
label class: inactive

molecule: O=C1C[C@@H]2/C(=C(O)\C=C\c3ccccc3)C(=O)C=C[C@@H]2O1
label class: active

molecule: C[N+]1(CCC[N+]2(C)C[C@@H]3[C@H](C2)[C@@H]2C=C[C@H]3C2)CCOCC1 (some centres not stated)
label class: inactive

molecule: Cc1cc(NC(=O)Nc2cccc3ccccc23)no1
label class: inactive

molecule: Nc1nc(SCc2ccccc2Cl)c(-c2ccccc2)c(SCc2ccccc2Cl)n1
label class: inactive

molecule: CCC(CCC(C)C1CCC2C3CC=C4CC(O)CCC4(C)C3CCC12C)C(C)C (configuration not stated) (tested in a mixture with another compound)
label class: inactive

molecule: COC(=O)C[C@@H]1CC=CC(=O)/C1=C(O)/C=C/c1ccccc1
label class: active

molecule: CCOC(=O)c1c2c(c(C)n1Cc1ccc(OC)cc1)-c1nc(N)ncc1CC2
label class: inactive

molecule: COc1cc([C@@H]2c3cc4c(cc3C(O[C@@H]3O[C@@H]5CO[C@@H](c6cccs6)OC5[C@H](O)[C@H]3O)C3COC(=O)[C@@H]32)OCO4)cc(OC)c1O (some centres not stated)
label class: active

molecule: [O-]/[N+](=C\C=C\c1ccccc1)c1ccccc1
label class: inactive

molecule: Clc1cccc(Cc2cn3cc(-c4ccccc4)nc3s2)c1
label class: inactive

molecule: COC(=O)[C@]1(CCSC)N[C@H](c2cn(-c3ccccc3)nc2C)[C@@H]2C(=O)N(c3ccc(C)cc3)C(=O)[C@@H]21
label class: inactive

molecule: COc1ccc(Nc2nccc(N3CCN(c4c5ccc(Cl)cc5nc5ccc(OC)cc45)CC3)n2)cc1
label class: inactive

molecule: COc1ccc(C(=O)C(C)Br)cc1OC (configuration not stated)
label class: inactive

molecule: COc1cc2cn3c4ccc(O)cc4nc(N)c3c2cc1OC
label class: inactive

molecule: CCCCCCCCCCCCCCCCCc1nccn1CCO
label class: inactive

molecule: CCN(CC)CCNc1ccc(Cl)cc1Cl
label class: inactive

molecule: O=C(/C=C/c1ccc(O)c(O)c1)N1CCN(c2ccc(Cl)cc2)CC1
label class: inactive

molecule: C=Cc1nn2c(CCC(=O)c3nc4ccccc4[nH]3)nnc2s1
label class: inactive

molecule: O=C(/C=C/c1ccccc1)CC(c1ccccc1)N1CCOCC1 (configuration not stated)
label class: active

molecule: N#Cc1c(N)[nH]c(S)c1C#N
label class: inactive

molecule: C[n+]1c2ccccc2c(Nc2ccc(N3CCCCC3)cc2)c2[nH]c3ccccc3c21
label class: active

molecule: O=C(/C(=C/c1cccc([N+](=O)[O-])c1)c1ccccc1)c1ccccc1
label class: inactive

molecule: CCCCCCCC/C=C/CCCCCCCC1=NC(C)(C)CN1CCO
label class: active

molecule: O=c1[nH]c(Cl)nc2c1cnn2-c1ccccc1
label class: inactive

molecule: COc1cc(C(=O)/C=C/c2cccnc2Nc2ccccc2)cc(OC)c1OC
label class: active

molecule: Cc1cc(C(C)(C)c2cc(C)c(O)c(CN(C)C)c2)cc(CN(C)C)c1O
label class: inactive
